Catalogue of TR_FRET EKI BCLxL/WT selectivty ratio readings, one per entry.
# target-of-assay: BCLXL WT (Homo sapiens (Human), UniProt Q07817)
# Sequence (Q07817 other isoform, or with tags, fused parts or gaps): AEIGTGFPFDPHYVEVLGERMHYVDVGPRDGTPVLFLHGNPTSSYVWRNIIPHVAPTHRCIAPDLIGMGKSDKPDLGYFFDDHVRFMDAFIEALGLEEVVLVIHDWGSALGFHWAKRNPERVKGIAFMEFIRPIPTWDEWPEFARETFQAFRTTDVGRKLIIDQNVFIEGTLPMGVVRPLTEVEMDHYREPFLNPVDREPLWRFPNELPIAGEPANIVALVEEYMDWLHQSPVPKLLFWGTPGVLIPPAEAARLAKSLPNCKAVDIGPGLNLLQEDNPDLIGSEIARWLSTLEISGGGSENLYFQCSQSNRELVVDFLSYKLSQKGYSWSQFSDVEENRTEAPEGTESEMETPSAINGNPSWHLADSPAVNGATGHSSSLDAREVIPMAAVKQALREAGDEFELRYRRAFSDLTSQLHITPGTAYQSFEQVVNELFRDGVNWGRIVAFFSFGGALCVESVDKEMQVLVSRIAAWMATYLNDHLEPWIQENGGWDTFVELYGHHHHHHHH
# procedure-details: TR-FRET competitive binding assay, BCLXL WT
# run-parameters: ratio Ki BCLxL / Ki BCL2 WT

| molecule | target-of-assay | TR_FRET EKI BCLxL/WT selectivty ratio |
| --- | --- | --- |
| Cc1c(N(C(=O)c2cc(-c3cc4c(cc3C(=O)N3Cc5ccccc5C[C@H]3CN3CCC[C@H](C)C3)CN(C(=O)Cc3ccc(OCCN5CCOCC5)cc3F)CC4)n(C)c2C)c2ccc(O)cc2)cc(C#N)n1C [Example 107] | BCLXL WT (Homo sapiens (Human), UniProt Q07817) | 87.6 |
| Cc1c(N(C(=O)c2cc(-c3cc4c(cc3C(=O)N3Cc5ccccc5C[C@H]3CN3CCC(C)CC3)CN(C(=O)Cc3ccc(OCCN5CCOCC5)cc3F)CC4)n(C)c2C)c2ccc(O)cc2)cc(C#N)n1C [Example 140] | BCLXL WT (Homo sapiens (Human), UniProt Q07817) | 35.9 |
| Cc1c(N(C(=O)c2cc(-c3cc4c(cc3C(=O)N3Cc5ccccc5C[C@H]3C)CN(C(=O)Cc3ccc(OCCN5CC(F)C5)cc3)CC4)n(C)c2C)c2ccc(O)cc2)cc(C#N)n1C [Example 49] | BCLXL WT (Homo sapiens (Human), UniProt Q07817) | 13.0 |

---

# target-of-assay: BCL2 WT (Homo sapiens (Human), UniProt P10415)
# procedure-details: TR-FRET competitive binding assay, BCL2 WT
# run-parameters: Ki determined from IC50, read-out: TR_FRET EKI_Bcl2 WT
pKi: −log10 of the molar value.
Catalogue of pKi readings, one per entry.

| molecule | pKi |
| --- | --- |
| Cc1c(N(C(=O)c2cc(-c3cc4c(cc3C(=O)N3Cc5ccccc5C[C@H]3CN3CCC(C)CC3)CN(C(=O)Cc3ccc(OCCN5CCOCC5)cc3F)CC4)n(C)c2C)c2ccc(O)cc2)cc(C#N)n1C | 10.10 |
| Cc1c(N(C(=O)c2cc(-c3cc4c(cc3C(=O)N3Cc5ccccc5C[C@H]3C)CN(C(=O)Cc3ccc(OCCN(C)C5COC5)cc3)CC4)n(C)c2C)c2ccc(O)cc2)cc(C#N)n1C | 10.30 |
| Cc1c(N(C(=O)c2cc(-c3cc4c(cc3C(=O)N3Cc5ccccc5C[C@H]3C)CN(C(=O)Cc3ccc(OCCN5CCOCC5)cc3)CC4)n(C)c2C)c2ccccc2)cc(C#N)n1C | 10.10 |
| Cc1c(C(=O)N(c2ccccc2)c2ccnn2C)cc(-c2cc3c(cc2C(=O)N2Cc4ccccc4C[C@H]2C)CN(C(=O)Cc2ccc(OCCN4CCOCC4)cc2)CC3)n1C | 9.89 |

---

# target-of-assay: BCL2 G101V (Homo sapiens, UniProt P10415, G101V)
# procedure-details: TR-FRET competitive binding assay, BCL2 G101V
# run-parameters: BCL2 G101V; Ki determined from IC50; read-out: TR_FRET EKI_Bcl2 G101V

| compound | target-of-assay | Ki, nM |
| --- | --- | --- |
| Cc1nn(C)cc1N(C(=O)c1cc(-c2cc3c(cc2C(=O)N2Cc4ccccc4C[C@H]2C)CN(C(=O)Cc2ccc(OCCN4CCOCC4)cc2F)CC3)n(C)c1C)c1ccccc1 | BCL2 G101V (Homo sapiens, UniProt P10415, G101V) | 2.7 |
| Cc1c(N(C(=O)c2cc(-c3cc4c(cc3C(=O)N3Cc5ccccc5C[C@H]3C)CN(C(=O)Cc3ccc(OCCN5CCOC(C)C5)cc3F)CC4)n(C)c2C)c2ccc(O)cc2)cc(C#N)n1C (single isomer, unassigned) | BCL2 G101V (Homo sapiens, UniProt P10415, G101V) | 0.5 |
| Cc1c(N(C(=O)c2cc(-c3cc4c(cc3C(=O)N3Cc5ccccc5C[C@H]3CN3CCCCC3)CN(C(=O)Cc3ccc(OCCC5CCOCC5)nc3)CC4)n(C)c2C)c2ccc(O)cc2)cc(C#N)n1C | BCL2 G101V (Homo sapiens, UniProt P10415, G101V) | 0.5 |

---

Catalogue of TR_FRET EKI G101V/WT selectivty ratio readings, one per entry.
# Tested on: BCL2 G101V
# procedure-details: TR-FRET competitive binding assay, BCL2 G101V
# Design: species or system human
# run-parameters: ratio Ki BCL2 G101V / Ki BCL2 WT

| molecule | target-of-assay | TR_FRET EKI G101V/WT selectivty ratio |
| --- | --- | --- |
| COC[C@@H]1Cc2ccccc2CN1C(=O)c1cc2c(cc1-c1cc(C(=O)N(c3ccc(O)cc3)c3cc(C#N)n(C(F)F)c3C)c(C)n1C)CCN(C(=O)Cc1ccc(OCCN3CCOCC3)cc1)C2 | BCL2 G101V | 4.4 |
| Cc1c(N(C(=O)c2cc(-c3cc4c(cc3C(=O)N3Cc5ccccc5C[C@H]3C)CN(C(=O)Cc3ccc(OCCN5CC6(CCS6(=O)=O)C5)cc3)CC4)n(C)c2C)c2ccc(O)cc2)cc(C#N)n1C | BCL2 G101V | 2.7 |
| Cc1c(N(C(=O)c2cc(-c3cc4c(cc3C(=O)N3Cc5ccccc5C[C@H]3CN3CC5(CC5)C3)CN(C(=O)Cc3ccc(OCCN5CCOCC5)cc3F)CC4)n(C)c2C)c2ccc(O)cc2)cc(C#N)n1C | BCL2 G101V | 5.4 |

---

Ki tested on BCLXL WT (Homo sapiens (Human)): recorded values

| compound | measure-unit | Ki |
| --- | --- | --- |
| Cc1c(C(=O)N(c2ccccc2)c2cnc3c(cnn3C)c2)cc(-c2cc3c(cc2C(=O)N2Cc4ccccc4C[C@H]2C)CN(C(=O)Cc2ccc(OCCN4CCOCC4)cc2F)CC3)n1C [Example 194] | nM | 3.3 |
| Cc1c(N(C(=O)c2cc(-c3cc4c(cc3C(=O)N3Cc5ccccc5C[C@H]3CN3CCCCC3)CN(C(=O)Cc3ccc(OCCN(C)CCF)cc3)CC4)n(C)c2C)c2ccc(O)cc2)cc(C#N)n1C [Example 116] | nM | 3.3 |
| Cc1c(N(C(=O)c2cc(-c3cc4c(cc3C(=O)N3Cc5ccccc5C[C@H]3CN3CCCCC3)CN(C(=O)Cc3ccc(OCCN5CCC(F)CC5)cc3F)CC4)n(C)c2C)c2ccc(O)cc2)cc(C#N)n1C [Example 115] | nM | 2.8 |
| Cc1c(N(C(=O)c2cc(-c3cc4c(cc3C(=O)N3Cc5ccccc5C[C@H]3CN3CCCCC3)CN(C(=O)Cc3ccc(OCCC5CCOCC5)cc3)CC4)n(C)c2C)c2ccc(O)cc2)cc(C#N)n1C [Example 66] | nM | 4 |
| Cc1c(N(C(=O)c2cc(-c3cc4c(cc3C(=O)N3Cc5ccccc5C[C@H]3CN3CCCCC3)CN(C(=O)Cc3ccc(OCCN(C)CC5COC5)cc3)CC4)n(C)c2C)c2ccc(O)cc2)cc(C#N)n1C [Example 104] | nM | 2.6 |
| Cc1c(N(C(=O)c2cc(-c3cc4c(cc3C(=O)N3Cc5ccccc5C[C@H]3CN3CCCCC3)CN(C(=O)Cc3ccc(Cl)cc3F)CC4)n(C)c2C)c2ccc(O)cc2)cc(C#N)n1C [Example 44] | nM | 2.2 |
| Cc1cc(OCCN2CCOCC2)c(F)cc1CC(=O)N1CCc2cc(-c3cc(C(=O)N(c4ccc(O)cc4)c4cc(C#N)n(C)c4C)c(C)n3C)c(C(=O)N3Cc4ccccc4C[C@H]3C)cc2C1 [Example 224] | nM | 1.3 |

---

# target-of-assay: BCL2 G101V (Homo sapiens, UniProt P10415, G101V)
# procedure-details: TR-FRET competitive binding assay, BCL2 G101V
# run-parameters: BCL2 G101V; Ki determined from IC50; read-out: TR_FRET EKI_Bcl2 G101V
# Procedure: The relative binding potency of each compound was determined in a competitive binding assay using time resolved-fluorescence resonance energy transfer (TR-FRET). […] The degree of binding or corresponding compound inhibition can be quantified by the TR-FRET signal between the terbium donor and fluorescein acceptor. […] TR-FRET measurements were performed on a Biotek Synergy Neo plate reader. […] The TR-FRET signal was calculated as the emission-ratio at 520 nm over 495 nm. […]
Catalogue of Ki readings, one per entry.
measured-parameter: Ki (nM)

| molecule | measured-parameter | measure-unit | numeric-result |
| --- | --- | --- | --- |
| Cc1c(N(C(=O)c2cc(-c3cc4c(cc3C(=O)N3Cc5ccccc5C[C@H]3CN3CCCC3)CN(C(=O)Cc3ccc(OCCN5CCOCC5)cc3F)CC4)n(C)c2C)c2ccc(O)cc2)cc(C#N)n1C | Ki | nM | 0.2 |
| CCn1c(C#N)cc(N(C(=O)c2cc(-c3cc4c(cc3C(=O)N3Cc5ccccc5C[C@H]3C)CN(C(=O)Cc3ccc(OCCN5CCOCC5)cc3)CC4)n(C)c2C)c2ccc(O)cc2)c1C | Ki | nM | 0.4 |
| Cc1c(N(C(=O)c2cc(-c3cc4c(cc3C(=O)N3Cc5ccccc5C[C@H]3C)CN(C(=O)Cc3cccc(N5CCN(C)CC5)c3)CC4)n(C)c2C)c2ccccc2)cc(C#N)n1C | Ki | nM | 0.4 |
| Cc1c(N(C(=O)c2cc(-c3cc4c(cc3C(=O)N3Cc5ccccc5C[C@H]3CN3CCCCC3)CN(C(=O)Cc3ccc(OCCN5CCOCC5)cc3F)CC4)n3ccccc23)c2ccc(O)cc2)cc(C#N)n1C | Ki | nM | 0.6 |
| Cc1c(N(C(=O)c2cc(-c3cc4c(cc3C(=O)N3Cc5ccccc5C[C@H]3CN3CC[C@@H](F)C3)CN(C(=O)Cc3ccc(OCCC5CCOCC5)cc3)CC4)n(C)c2C)c2ccc(O)cc2)cc(C#N)n1C | Ki | nM | 1.5 |
